- experiment: Mouse hepatocyte stability
- Assay type: in vitro ADME
- test parameters: mouse hepatocytes, 37°C
- Experimental: Determination of human and mice hepatocyte stability was conducted as follows. 200 uL of the respective hepatocyte cell suspension (2×10e6/ml) was preincubated at 37° C. for 10 min. Then, 200 uL of a 2 uM working stock of the test compound was added to the hepatocyte cell suspension, and the mixture was further incubated at 37° C. and 500 rpm. […] Intrinsic clearance and half-life were analysed using LC-MS/MS. […]
Entries and their half-life at 1 uM values follow.
experimental endpoint: half-life at 1 uM (h)

INSERT INTO measurements (compound, units_of_measure, obs_value) VALUES
  ('COc1ccc(N2C(=O)N(c3c(CF)csc3Cl)Cc3cnc(Nc4ccc(C5CCN(C)CC5)cc4)nc32)nc1 [AA3]', 'h', 1.8),
  ('COc1ccc(N2C(=O)N(c3c(C)cccc3Cl)Cc3cnc(Nc4ccc(C5CCN(C)CC5)cc4OC)nc32)nc1 [PY1, reference compound]', 'h', 1.25),
  ('COc1ccc(N2C(=O)N(c3c(C)csc3Cl)Cc3cnc(Nc4ccc(C5CCN(C)CC5)cc4OC)nc32)nc1 [AA1]', 'h', 1.73),
  ('COc1ccc(N2C(=O)N(c3c(C(F)F)csc3Cl)Cc3cnc(Nc4ccc(C5CCN(C)CC5)cc4)nc32)nc1 [AA2]', 'h', 1.37);
